FYI, the data here is from BigSolDB 2.1.

Conditions: in methyl acetate, 323.15 K
reportedProperty: solubility (mole fraction)
Give bare numbers.

stdin: Which value of solubility (mole fraction) has been reported for "Cl.Cl.Fc1ccc(C(c2ccc(F)cc2)N2CCN(C/C=C/c3ccccc3)CC2)cc1" in the records?
stdout: 0.00494

###

Conditions: in acetone, 323.15 K
reportedProperty: solubility (mole fraction)
Numbers only.

stdin: Which value of solubility (mole fraction) has been reported for "Cl.Cl.Fc1ccc(C(c2ccc(F)cc2)N2CCN(C/C=C/c3ccccc3)CC2)cc1" in the records?
stdout: 0.00948

###

Conditions: in ethyl acetate, 303.15 K
reportedProperty: solubility (mole fraction)

stdin: Which value of solubility (mole fraction) has been reported for "Cl.Cl.Fc1ccc(C(c2ccc(F)cc2)N2CCN(C/C=C/c3ccccc3)CC2)cc1" in the records?
stdout: 0.00229
